Taken from patent US6596719B1.

Field: pA2 value ETA. Provide a value for each of the compounds that follow.
- SYSTEM: ETA receptors (Rattus norvegicus)
- Sequence (P26684 21-426): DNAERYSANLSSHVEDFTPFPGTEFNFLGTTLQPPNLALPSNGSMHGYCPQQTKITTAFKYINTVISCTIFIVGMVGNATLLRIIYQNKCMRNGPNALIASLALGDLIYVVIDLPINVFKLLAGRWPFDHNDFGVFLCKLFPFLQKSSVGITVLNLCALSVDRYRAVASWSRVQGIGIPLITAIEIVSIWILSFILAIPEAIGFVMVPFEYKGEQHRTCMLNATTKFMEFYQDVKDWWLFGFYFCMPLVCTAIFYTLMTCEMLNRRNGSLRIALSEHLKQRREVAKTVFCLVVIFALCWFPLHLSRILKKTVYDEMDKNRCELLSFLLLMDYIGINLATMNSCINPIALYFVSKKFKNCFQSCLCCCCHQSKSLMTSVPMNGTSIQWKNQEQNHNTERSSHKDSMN
- ASSAY PROCEDURE: Inhibition of endothelin-1-induced contractions on isolated rat aortic rings
- CONDITION SET: rat aortic rings, contraction induced by endothelin-1, 10 min incubation
Numbers only.

Consider the reported pA2 value ETA for these compounds:
SUBSTANCE SMILES: CCCS(=O)(=O)NCCOc1nc(N2CCOCC2)nc(NS(=O)(=O)c2ccc(C)cn2)c1Oc1ccccc1OC
ASSAY READOUT: pA2 value ETA
NUMERIC RESULT: 6.61
//
SUBSTANCE SMILES: COc1ccccc1Oc1c(NS(=O)(=O)c2ccc(C(C)(C)C)cc2)nc(-c2ncccn2)nc1OCCNS(=O)(=O)c1cccs1
ASSAY READOUT: pA2 value ETA
NUMERIC RESULT: 6.08

Dear colleague, could you please provide pA2 value ETA for the compounds listed below?
1. CCS(=O)(=O)NCCCOc1nc(C2CC2)nc(NS(=O)(=O)c2ccc(C(C)(C)C)cc2)c1Oc1ccccc1OC
2. COc1ccccc1Oc1c(NS(=O)(=O)c2ccc(C(C)(C)C)cc2)nc(C2CC2)nc1OCCCNS(=O)(=O)c1cccs1
3. CCS(=O)(=O)NCCOc1nc(C(F)(F)F)nc(NS(=O)(=O)c2ccc(C(C)C)cn2)c1Oc1ccccc1OC
4. CCS(=O)(=O)NCCOc1nc(N2CCOCC2)nc(NS(=O)(=O)c2ccc(C(C)C)cn2)c1Oc1ccccc1OC

1: 6.52; 2: 6.16; 3: 6.2; 4: 7.02

###

- SYSTEM: ETB receptors (Rattus norvegicus, UniProt P21451)
- Sequence (P21451 27-442): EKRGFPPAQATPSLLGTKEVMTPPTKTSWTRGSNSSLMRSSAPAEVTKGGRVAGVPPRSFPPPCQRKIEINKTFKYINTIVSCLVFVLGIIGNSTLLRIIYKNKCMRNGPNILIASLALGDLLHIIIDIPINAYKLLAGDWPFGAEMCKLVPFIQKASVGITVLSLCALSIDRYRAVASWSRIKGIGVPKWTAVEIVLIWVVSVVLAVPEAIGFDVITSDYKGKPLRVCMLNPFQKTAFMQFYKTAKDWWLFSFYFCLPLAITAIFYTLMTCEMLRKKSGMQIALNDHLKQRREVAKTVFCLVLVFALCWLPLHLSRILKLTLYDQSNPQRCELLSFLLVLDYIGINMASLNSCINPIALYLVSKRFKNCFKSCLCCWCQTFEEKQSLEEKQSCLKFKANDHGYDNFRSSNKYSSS
- ASSAY PROCEDURE: Inhibition of sarafotoxin S6c-induced contractions on isolated rat tracheal rings
ASSAY READOUT: Kb (nM)
Give bare numbers, in nM.

Consider the reported Kb for these compounds:
SUBSTANCE SMILES: COc1ccccc1Oc1c(NS(=O)(=O)c2ccc(C(C)C)cn2)nc(-c2ccncc2)nc1OCCNS(=O)(=O)C(C)C
NUMERIC RESULT: 1260
--
SUBSTANCE SMILES: COc1ccccc1Oc1c(NS(=O)(=O)c2ccc(C(C)C)cn2)nc(-c2cc(OC)c(OC)c(OC)c2)nc1OCCNS(=O)(=O)c1cccs1
NUMERIC RESULT: 40.7
--
SUBSTANCE SMILES: COc1ccccc1Oc1c(NS(=O)(=O)c2ccc(C(C)C)cn2)nc(-c2ccncc2)nc1OCCNS(=O)(=O)c1ccc(C)cc1
NUMERIC RESULT: 513

Please look at the following compound next.
Record summary for "CCCS(=O)(=O)NCCOc1nc(-c2cc(OC)c(OC)c(OC)c2)nc(NS(=O)(=O)c2ccc(C(C)C)cn2)c1Oc1ccccc1OC" : reported Kb = 34.7
